Ref: patent US20250277059A1

The following binders are shown together with reported koff values.
Target: T1, Human TMPRSS2 recombinant protein, extracellular region (N-terminal His tag, C-terminal Strep-tag II) (human, UniProt O15393 106-492)
T1 construct: also called Human TMPRSS2 recombinant proteins; extracellular region of human TMPRSS2
T1 sequence (O15393 other isoform, or with tags, fused parts or gaps limits assumed): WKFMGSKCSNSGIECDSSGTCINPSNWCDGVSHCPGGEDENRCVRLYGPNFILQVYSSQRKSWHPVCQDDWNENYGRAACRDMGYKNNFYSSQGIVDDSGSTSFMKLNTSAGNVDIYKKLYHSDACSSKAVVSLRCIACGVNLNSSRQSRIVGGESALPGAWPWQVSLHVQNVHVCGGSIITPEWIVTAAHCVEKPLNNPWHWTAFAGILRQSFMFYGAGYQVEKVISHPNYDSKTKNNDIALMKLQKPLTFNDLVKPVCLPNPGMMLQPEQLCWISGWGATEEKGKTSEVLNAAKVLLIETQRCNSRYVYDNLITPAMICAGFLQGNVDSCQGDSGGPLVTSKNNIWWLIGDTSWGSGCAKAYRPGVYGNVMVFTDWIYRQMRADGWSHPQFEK
Test: SPR (BIACore)
Give the number; s⁻¹ is assumed, so skip it.

humanized 752-1 IgG4 (S108P) prototype #4 (antibody, V domains shown, also called humanized #4; hu #4) VH: QVQLQQSGTGLARPGASVKLSCKASGYTFTSCGISWVTQRAGQGLEWIGEIYPRGGNTYYNEKFKGKATLTADKSSSSAYMELRGLTAEDSAVYFCARENGNYDPLFAYWGQGTTLTVSS VL: DIQMTQSPSSLSASVGDRVTITCKASQDINKYIAWYQQKPGKAPKLLIHYTSTLQPGVPSRFSGSGSGTDFTFTISSLQPEDIATYYCLQYYNLWTFGGGTKVEIK ... 0.00611
humanized 752-1 IgG4 (S108P) prototype #2 (antibody, V domains shown, also called humanized #2; hu #2) VH: QVQLVQSGAEVKKPGASVKVSCKASGYTFTSCGISWVRQAPGQGLEWMGEIYPRGGNTYYNEKFKGRVTMTTDTSTSTAYMELRSLRSDDTAVYYCARENGNYDPLFAYWGQGTLVTVSS VL: DIQMTQSPSSLSASVGDRVTITCKASQDINKYIAWYQQKPGKAPKLLIHYTSTLQPGVPSRFSGSGSGTDFTFTISSLQPEDIATYYCLQYYNLWTFGGGTKVEIK ... 0.0152
humanized 752-1 IgG4 (S108P) prototype #3 (antibody, V domains shown, also called humanized #3; hu #3) VH: QVQLQQSGTGLARPGASVKLSCKASGYTFTSCGISWVTQRAGQGLEWIGEIYPRGGNTYYNEKFKGKATLTADKSSSSAYMELRGLTAEDSAVYFCARENGNYDPLFAYWGQGTTLTVSS VL: DIQMTQSPSSLSASVGDRVTITCKASQDINKYIAWYQQKPGKAPKLLIYYTSTLQPGVPSRFSGSGSGTDFTFTISSLQPEDIATYYCLQYYNLWTFGGGTKVEIK ... 0.00469

The recorded koff for humanized 2228-15 IgG4 (S108P) prototype #1 (antibody, V domains shown, also called humanized #1; hu #1) VH: QVQLVQSGAEVKKPGASVKVSCKASGYTFTDYYINWVRQAPGQGLEWMGWIFPGSGSSYYNAIFKGRVTMTRDTSISTAYMELSRLRSDDTAVYYCARGDFGNFGGFFTYWGQGTLVTVSS VL: DVVMTQSPLSLPVTLGQPASISCRASKSVSTSGYSFMHWFQQRPGQSPRRLIYLASNLESGVPDRFSGSGSGTDFTLKISRVEAEDVGVYYCQHSRELPLTFGGGTKVEIK is 0.0641
